Hey, just so you know, these numbers are from ChEMBL document CHEMBL1201862.

# Tested on: HOP-92
# METHOD_SUMMARY: NCI tumour cell line growth inhibition, 48 h
Calls of active or inactive are those of the source. Rule as the data show it: active = GI50 up to about 1.1 µM and inactive = higher.
Reported GI50 values for the following compounds.

{"COMPOUND": "CN1CCc2cc3c(c4c2C1C(O)c1ccccc1-4)OCO3 (centres undefined)", "MEASUREMENT_TARGET": "HOP-92", "GI50": "2.16 µM (inactive)"}
{"COMPOUND": "CC1=CC2=C(OCO1)C(=O)c1ccccc1C2=O", "MEASUREMENT_TARGET": "HOP-92", "GI50": "10.4 µM (inactive)"}
{"COMPOUND": "COC(=O)c1c(OC)cc2cc3c(c(O)c2c1C)C(=O)C1(O)C(=O)C=C(OC)C(OC(=O)CC(C)N)=C1C3=O (centres undefined)", "MEASUREMENT_TARGET": "HOP-92", "GI50": "18.2 µM (inactive)"}
{"COMPOUND": "O=C1/C(=C/c2ccc(Br)s2)NC(=S)N1c1ccccc1", "MEASUREMENT_TARGET": "HOP-92", "GI50": "25.7 µM (inactive)"}
